Test system: MDA-MB-468 breast
Assay: NCI-60 one-dose screen, 48 h (100 = growth as untreated, 0 = no growth, -100 = all killed)
Conditions: 10 µM unless noted
The panel holds about 83,000 compounds, 20% with a hit somewhere; the sample as a whole holds those more often. Activity calls are given as the source filed them. How the source made its calls: active means growth percent below 10; inactive means the rest.
EXPERIMENTAL_ENDPOINT: growth

Some compounds with recorded growth:
1. Cc1ccc2[nH]c(=S)[nH]c(=O)c2c1 ... 102% (inactive)
2. O=C(NCCCNc1nccc(-n2ccc3cccnc32)n1)c1c(F)cccc1F ... 101% (inactive)
3. COc1ccc(-c2nc3ncccn3c2-c2nnc(-c3ccc(F)cc3)o2)cc1 ... 100% (inactive)
4. COc1nc2c(c(=O)n1C)N=C1c3ccccc3C(=O)C1C(c1ccccc1)N2 (stereo unspecified) ... 82.5% (inactive)
5. CCn1cc(-c2cc(-c3ccc(Cl)cc3)nc(N)n2)c(-c2ccc(Br)cc2)n1 ... 72.7% (inactive)
6. C#Cc1ccc(-n2c(/C=C/c3ccc(Cl)c(F)c3)nc3ncccc3c2=O)cc1 ... -74.5% (active)
7. Cc1nc(-n2[nH]c(=O)ccc2=O)sc1N=Nc1ccccc1 ... 93.8% (inactive)
8. Cc1ccc(-c2cc(-c3ccc(N(C)C)cc3)n3c(n2)nc2ccccc23)cc1 ... -0.434% (active)
9. COC(=O)/C=C1/SC(N2N=C(c3cccs3)CC2c2ccc(F)cc2)=NC1=O (stereo unspecified) ... 36.7% (inactive)
10. N#CCc1csc(Cc2ccccc2)n1 ... 107% (inactive)

With those in mind, consider the next compound.
Recorded growth of "COc1ccccc1/C=C1\COc2ccc(O)c(O)c2C1=O" , please.
12.6% (inactive)
